# SYSTEM_NAME: UniProtKB P21554
# ASSAY_COMMENT: Antagonist activity at human brain CB1 receptor assessed as inhibition for [35S]GTPgammaS binding
READOUT_TYPE: EC50 (µM)
One number for each entry, in µM.

- Cc1c(C(=O)NCCCCCCCCCNCCCCCCCCCNC(=O)c2nn(-c3ccc(Cl)cc3Cl)c(-c3ccc(Cl)cc3)c2C)nn(-c2ccc(Cl)cc2Cl)c1-c1ccc(Cl)cc1: 0.0279

Look up EC50 for the entries below, preserving their order.
1. Cc1c(C(=O)NCCNCCNC(=O)c2nn(-c3ccc(Cl)cc3Cl)c(-c3ccc(Cl)cc3)c2C)nn(-c2ccc(Cl)cc2Cl)c1-c1ccc(Cl)cc1
2. Cc1c(C(=O)NCCCCCNCCCCCNC(=O)c2nn(-c3ccc(Cl)cc3Cl)c(-c3ccc(Cl)cc3)c2C)nn(-c2ccc(Cl)cc2Cl)c1-c1ccc(Cl)cc1

Result:
1. 0.237
2. 0.033

---

# SYSTEM_NAME: Cannabinoid receptor 1 (Homo sapiens)
# Sequence (P21554 whole entry): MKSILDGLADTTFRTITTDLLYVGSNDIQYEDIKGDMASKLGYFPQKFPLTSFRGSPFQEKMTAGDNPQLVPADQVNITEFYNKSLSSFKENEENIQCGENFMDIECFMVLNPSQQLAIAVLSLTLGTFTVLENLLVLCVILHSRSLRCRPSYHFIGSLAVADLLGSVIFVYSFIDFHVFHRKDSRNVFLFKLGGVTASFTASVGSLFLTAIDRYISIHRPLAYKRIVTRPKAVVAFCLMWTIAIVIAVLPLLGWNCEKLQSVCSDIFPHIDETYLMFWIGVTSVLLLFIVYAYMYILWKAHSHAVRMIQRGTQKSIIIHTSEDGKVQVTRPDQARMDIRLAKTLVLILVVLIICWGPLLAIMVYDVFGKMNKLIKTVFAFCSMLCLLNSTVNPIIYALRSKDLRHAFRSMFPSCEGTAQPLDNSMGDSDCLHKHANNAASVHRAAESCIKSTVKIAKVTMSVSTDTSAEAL
# ASSAY_CONTEXT: CHO
Can you tell me Ke for the items I'm about to list?

- Cc1c(C(=O)NCCCCCNCCCCCNC(=O)c2nn(-c3ccc(Cl)cc3Cl)c(-c3ccc(Cl)cc3)c2C)nn(-c2ccc(Cl)cc2Cl)c1-c1ccc(Cl)cc1: 476 nM
- Cc1c(C(=O)NCCCCCCCNCCCCCCCNC(=O)c2nn(-c3ccc(Cl)cc3Cl)c(-c3ccc(Cl)cc3)c2C)nn(-c2ccc(Cl)cc2Cl)c1-c1ccc(Cl)cc1: 567 nM
- Cc1c(C(=O)NCCCNCCCNC(=O)c2nn(-c3ccc(Cl)cc3Cl)c(-c3ccc(Cl)cc3)c2C)nn(-c2ccc(Cl)cc2Cl)c1-c1ccc(Cl)cc1: 1300 nM
- Cc1c(C(=O)NCCNCCNC(=O)c2nn(-c3ccc(Cl)cc3Cl)c(-c3ccc(Cl)cc3)c2C)nn(-c2ccc(Cl)cc2Cl)c1-c1ccc(Cl)cc1: 2700 nM
- Cc1c(C(=O)NCCCCCCCCCNCCCCCCCCCNC(=O)c2nn(-c3ccc(Cl)cc3Cl)c(-c3ccc(Cl)cc3)c2C)nn(-c2ccc(Cl)cc2Cl)c1-c1ccc(Cl)cc1: 4160 nM

// batch mode: one Ke value per listed entry
1. Cc1c(C(=O)NCCCCCN(C)CCCCCNC(=O)c2nn(-c3ccc(Cl)cc3Cl)c(-c3ccc(Cl)cc3)c2C)nn(-c2ccc(Cl)cc2Cl)c1-c1ccc(Cl)cc1
2. Cc1c(C(=O)NCCCCCCCNCCCCCCCN)nn(-c2ccc(Cl)cc2Cl)c1-c1ccc(Cl)cc1

Result:
1: 108 nM; 2: 503 nM

Problem: Dear colleague, I am looking for the recorded Ke of the following compound: Cc1c(C(=O)NCCCCCCCN(C)CCCCCCCN)nn(-c2ccc(Cl)cc2Cl)c1-c1ccc(Cl)cc1
Result: 220 nM

---

# SYSTEM_NAME: Cannabinoid receptor 2 (Homo sapiens, UniProt P34972)
# Sequence (P34972 whole entry): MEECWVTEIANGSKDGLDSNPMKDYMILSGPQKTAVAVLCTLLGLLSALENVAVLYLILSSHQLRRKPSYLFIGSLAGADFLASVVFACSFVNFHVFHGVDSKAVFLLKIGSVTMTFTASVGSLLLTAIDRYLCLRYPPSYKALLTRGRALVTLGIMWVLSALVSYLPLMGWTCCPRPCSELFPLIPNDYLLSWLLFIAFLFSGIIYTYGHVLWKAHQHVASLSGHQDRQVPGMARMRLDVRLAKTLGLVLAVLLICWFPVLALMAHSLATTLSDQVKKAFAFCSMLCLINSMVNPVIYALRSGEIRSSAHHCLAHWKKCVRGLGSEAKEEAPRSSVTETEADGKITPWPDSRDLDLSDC
READOUT_TYPE: Ki (nM)
One number for each entry, in nM.

- Cc1c(C(=O)NCCCCCCCCCCCNCCCCCCCCCCCN)nn(-c2ccc(Cl)cc2Cl)c1-c1ccc(Cl)cc1: 305
- Cc1c(C(=O)NCCCCCCCN(C)CCCCCCCN)nn(-c2ccc(Cl)cc2Cl)c1-c1ccc(Cl)cc1: 1930
- Cc1c(C(=O)NCCNCCNC(=O)c2nn(-c3ccc(Cl)cc3Cl)c(-c3ccc(Cl)cc3)c2C)nn(-c2ccc(Cl)cc2Cl)c1-c1ccc(Cl)cc1: 1280
- Cc1c(C(=O)NCCCCCCCNCCCCCCCN)nn(-c2ccc(Cl)cc2Cl)c1-c1ccc(Cl)cc1: 622
- Cc1c(C(=O)NCCCCCCCNCCCCCCCNC(=O)c2nn(-c3ccc(Cl)cc3Cl)c(-c3ccc(Cl)cc3)c2C)nn(-c2ccc(Cl)cc2Cl)c1-c1ccc(Cl)cc1: 553
- Cc1c(C(=O)NCCCCCCCCCN(C)CCCCCCCCCN)nn(-c2ccc(Cl)cc2Cl)c1-c1ccc(Cl)cc1: 265

Consider the additional compound presented here.
Problem: Given the compound Cc1c(C(=O)NCCCCCCCCCNCCCCCCCCCN)nn(-c2ccc(Cl)cc2Cl)c1-c1ccc(Cl)cc1 , what is its reported Ki?
Result: 419
